# protocol-summary: AUC in Wistar rat at 2 mg/kg, iv or 5 mg/kg, po
# Assay type: ADME, organism-based
# run-conditions: plasma
measured-endpoint: AUC (µg·h/mL)

* O=C(O)c1ccc(NC(=O)[C@H](C2CCCCC2)n2c(-c3ccc(Cl)cc3)nc3cc(F)c(F)cc32)c(F)c1 | 3.03

###

# protocol-summary: Oral bioavailability in C57BL/6 mouse at 4 mg/kg, iv or 10 mg/kg, po
# Type: ADME, organism-based
# run-conditions: in vivo
measured-endpoint: bioavailability (%)

- O=C(O)c1ccc(NC(=O)[C@H](C2CCCCC2)n2c(-c3ccc(Cl)cc3)nc3cc(F)c(F)cc32)c(F)c1: 33

###

List of logD values.
# protocol-summary: Lipophilicity log D of the compound at pH 7.4
# Assay type: physicochemical
# run-conditions: buffer
measured-endpoint: logD

- Cc1cc(C(=O)O)ccc1NC(=O)[C@H](C1CCCCC1)n1c(-c2ccc(Cl)cc2)nc2cc(F)c(F)cc21: 2.83
- O=C(O)c1ccc(NC(=O)[C@H](C2CCCCC2)n2c(-c3ccc(Cl)cc3)nc3cc(F)c(F)cc32)cc1: 3.06
- O=C(O)c1ccc(NC(=O)[C@H](C2CCCCC2)n2c(-c3ccc(Cl)cc3)nc3cc(F)c(F)cc32)c(F)c1: 2.66
- O=C(N[C@H]1CC[C@H](C(=O)O)CC1)[C@H](C1CCCCC1)n1c(-c2ccc(Cl)cc2)nc2cc(F)c(F)cc21: 2.49
- O=C(Nc1ccc(OC2(C(=O)O)CC2)cc1F)[C@H](C1CCCCC1)n1c(-c2ccc(Cl)cc2)nc2cc(F)c(F)cc21: 2.32
- O=C(O)c1ccc(NC(=O)[C@H](C2CCCCC2)n2c(-c3ccc(Cl)cc3)nc3cc(F)c(F)cc32)c(Cl)c1: 2.98

###

# protocol-summary: Oral bioavailability in Wistar rat at 2 mg/kg, iv or 5 mg/kg, po
# Type: ADME, organism-based
# run-conditions: in vivo
measured-endpoint: bioavailability (%)

- O=C(O)c1ccc(NC(=O)[C@H](C2CCCCC2)n2c(-c3ccc(Cl)cc3)nc3cc(F)c(F)cc32)c(F)c1: 59

###

# protocol-summary: Lipophilicity log D of the compound at pH 7.4
# Format: physicochemical
# run-conditions: buffer
measured-endpoint: logD

- O=C(Nc1ccc(-c2nnn[nH]2)cc1F)[C@H](C1CCCCC1)n1c(-c2ccc(Cl)cc2)nc2cc(F)c(F)cc21: 2.96
- O=C(O)c1ccc(NC(=O)[C@H](C2CCCCC2)n2c(-c3ccc(Cl)cc3)nc3ccccc32)c(C(F)(F)F)c1: 2.34
- COc1ccc(-c2nc3cc(F)c(F)cc3n2[C@H](C(=O)N[C@H]2CC[C@H](C(=O)O)CC2)C2CCCCC2)c(OC)n1: 1.91

###

# protocol-summary: Cmax in C57BL/6 mouse at 4 mg/kg, iv or 10 mg/kg, po
# Format: ADME, organism-based
# run-conditions: in vivo
measured-endpoint: Cmax/dose (ng/mL)

• O=C(O)c1ccc(NC(=O)[C@H](C2CCCCC2)n2c(-c3ccc(Cl)cc3)nc3cc(F)c(F)cc32)c(F)c1 = 205

###

# protocol-summary: Volume of distribution at steady state in Wistar rat at 2 mg/kg, iv or 5 mg/kg, po
# Assay type: ADME, organism-based
# run-conditions: in vivo, read-out: Vdss
measured-endpoint: Vd

* O=C(O)c1ccc(NC(=O)[C@H](C2CCCCC2)n2c(-c3ccc(Cl)cc3)nc3cc(F)c(F)cc32)c(F)c1 | 0.62 L/kg
